system: binding between IKKβ and full-length Regnase-1 (FL_Reg1) (Homo sapiens)
Construct: made in house; host or cells: Expi293 cells
Sequence (Q5D1E8 whole entry): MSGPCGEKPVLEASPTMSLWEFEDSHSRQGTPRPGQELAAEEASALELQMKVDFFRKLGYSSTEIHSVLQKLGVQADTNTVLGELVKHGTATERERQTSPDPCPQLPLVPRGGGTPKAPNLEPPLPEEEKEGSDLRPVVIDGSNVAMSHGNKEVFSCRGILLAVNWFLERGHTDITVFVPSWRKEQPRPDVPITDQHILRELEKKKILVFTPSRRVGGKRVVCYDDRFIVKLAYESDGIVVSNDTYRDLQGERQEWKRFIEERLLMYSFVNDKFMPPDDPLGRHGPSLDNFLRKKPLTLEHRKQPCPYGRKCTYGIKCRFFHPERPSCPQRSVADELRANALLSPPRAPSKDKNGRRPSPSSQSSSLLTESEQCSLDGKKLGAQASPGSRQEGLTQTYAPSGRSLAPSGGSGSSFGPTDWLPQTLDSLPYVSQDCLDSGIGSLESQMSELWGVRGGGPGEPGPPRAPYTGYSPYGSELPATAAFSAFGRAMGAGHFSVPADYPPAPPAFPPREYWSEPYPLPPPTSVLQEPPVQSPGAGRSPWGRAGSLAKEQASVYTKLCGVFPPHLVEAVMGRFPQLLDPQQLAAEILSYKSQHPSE
method-description: Inhibition of kinase-Regnase-1 binding by the compounds (AlphaScreen), IKKβ
experimental-parameters: Table 14; binding between IKKβ and Regnase-1; read-out: Binding inhibition FL_Reg1, 50% inhibition concentration (IKKβ)
Experimental: As a target protein, a construct having a FLAG tag on the N-terminal side and a recognition sequence for biotin ligase BirA on the C-terminal side of the full-length sequence of human Regnase-1 (UniProt ID: Q5D1E8) was prepared (FL_Reg1). The above-mentioned Regnase-1 was expressed in mammalian Expi293 cells, purified with FLAG M2 agarose, and isolated by gel filtration chromatography. […]
Residues, ends and D or L forms follow the SMILES beside them.
outcome-measure: pIC50
# pIC50: negative log10 of molar concentration; output just the value

Exercise: Specify reported pIC50 for the compound shown: CC[C@H](C)[C@@H]1NC(=O)[C@H](CCCCN)NC(=O)[C@H](Cc2ccc(O)cc2)NC(=O)[C@H](Cc2ccccc2)NC(=O)[C@H](C(C)C)NC(=O)[C@H](C)N(C)C(=O)C[C@@H](C(=O)N2CCCC2)NC(=O)[C@H](Cc2c[nH]c3ccccc23)NC(=O)[C@H](CC(N)=O)NC(=O)[C@H](Cc2ccc(O)cc2)NC(=O)[C@H](Cc2c[nH]c3ccccc23)NC1=O [PP19] (HELM PEPTIDE1{[meA].V.F.Y.K.I.W.Y.N.W.D.[C1CCN([*:1])C1]}$PEPTIDE1,PEPTIDE1,1:R1-11:R3$$$V2.0)
Key: 5.24

The measurements presented in this section are drawn from patent US20250018014A1.
